experimental.system: KPC-2 (K. pneumoniae) (Klebsiella pneumoniae)
Sequence (Q9F663 25-293 limits assumed): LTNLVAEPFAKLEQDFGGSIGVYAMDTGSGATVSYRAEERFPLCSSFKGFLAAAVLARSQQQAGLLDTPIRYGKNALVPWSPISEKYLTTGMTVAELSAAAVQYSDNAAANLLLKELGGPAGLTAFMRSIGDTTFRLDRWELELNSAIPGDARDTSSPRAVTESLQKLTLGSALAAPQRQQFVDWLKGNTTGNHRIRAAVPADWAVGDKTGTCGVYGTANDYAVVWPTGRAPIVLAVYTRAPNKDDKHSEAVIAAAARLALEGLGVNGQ
experiment.notes: biochemical
condition.info: Table 3; read-out: K.p. KPC-2 IC50
quantity.name: pIC50
Worth noting: pIC50 values are minus log10 of concentrations stated in mol/L.

IN: Report pIC50 for "COc1cc(NC(=O)[C@@H]2CC[C@@H]3CN2C(=O)N3OS(=O)(=O)O)ccn1" please.
OUT: 8.10

IN: Report pIC50 for "O=C(NCCN1CCCCC1)[C@@H]1CC[C@@H]2CN1C(=O)N2OS(=O)(=O)O" please.
OUT: 6.82

IN: Report pIC50 for "O=C(O[C@@H]1CCNC[C@@H]1F)[C@@H]1CC[C@@H]2CN1C(=O)N2OS(=O)(=O)O" please.
OUT: 7.59

IN: Report pIC50 for "O=C(Nc1ccc2c(c1)CCN2)[C@@H]1CC[C@@H]2CN1C(=O)N2OS(=O)(=O)O" please.
OUT: 7.39

IN: Report pIC50 for "O=C(Nc1ccnc(N2CCNCC2)n1)[C@@H]1CC[C@@H]2CN1C(=O)N2OS(=O)(=O)O" please.
OUT: 7.70

IN: Report pIC50 for "O=C(OC1CNNC1)[C@@H]1CC[C@@H]2CN1C(=O)N2OS(=O)(=O)O" please.
OUT: 7.21

IN: Report pIC50 for "O=C(Nc1nc2c(s1)CNCC2)[C@@H]1CC[C@@H]2CN1C(=O)N2OS(=O)(=O)O" please.
OUT: 7.41

IN: Report pIC50 for "CN1CCC(NC(=O)[C@@H]2CC[C@@H]3CN2C(=O)N3OS(=O)(=O)O)CC1" please.
OUT: 6.62

IN: Report pIC50 for "O=C(OC1CNC1)[C@@H]1CC[C@@H]2CN1C(=O)N2OS(=O)(=O)O" please.
OUT: 7.74

IN: Report pIC50 for "NC(=O)c1ccc(NC(=O)[C@@H]2CC[C@@H]3CN2C(=O)N3OS(=O)(=O)O)cc1" please.
OUT: 7.52

IN: Report pIC50 for "CN(C)Cc1ccc(NC(=O)[C@@H]2CC[C@@H]3CN2C(=O)N3OS(=O)(=O)O)cc1" please.
OUT: 7.27

IN: Report pIC50 for "O=C(N[C@@H]1CCCNCC1)[C@@H]1CC[C@@H]2CN1C(=O)N2OS(=O)(=O)O" please.
OUT: 6.65

IN: Report pIC50 for "NC(=O)c1cccc(NC(=O)[C@@H]2CC[C@@H]3CN2C(=O)N3OS(=O)(=O)O)c1" please.
OUT: 7.59

IN: Report pIC50 for "NCc1cccc(NC(=O)[C@@H]2CC[C@@H]3CN2C(=O)N3OS(=O)(=O)O)c1" please.
OUT: 6.98

IN: Report pIC50 for "N[C@H]1CCN(C(=O)[C@@H]2CC[C@@H]3CN2C(=O)N3OS(=O)(=O)O)C1" please.
OUT: 5.82

IN: Report pIC50 for "O=C(N[C@@H]1CCN(C2CCNCC2)C1=O)[C@@H]1CC[C@@H]2CN1C(=O)N2OS(=O)(=O)O" please.
OUT: 6.55

###

experimental.system: AmpC (P. aeruginosa) (Pseudomonas aeruginosa (strain ATCC 15692 / DSM 22644 / CIP 104116 / JCM 14847 / LMG 12228 / 1C / PRS 101 / PAO1))
experiment.notes: biochemical
condition.info: Table 3; read-out: P.a. AmpC IC50
quantity.name: IC50 (nM)
Express it in nM; write the number only.

IN: Report IC50 for O=C(O[C@@H]1CNOC1)[C@@H]1CC[C@@H]2CN1C(=O)N2OS(=O)(=O)O [Example 108] please.
OUT: 62

IN: Report IC50 for O=C([C@@H]1CC[C@@H]2CN1C(=O)N2OS(=O)(=O)O)N1CCNCC1 [Example 51] please.
OUT: 2200

IN: Report IC50 for NC1CCN(C(=O)[C@@H]2CC[C@@H]3CN2C(=O)N3OS(=O)(=O)O)CC1 [Example 50] please.
OUT: 820

IN: Report IC50 for O=C(OCC1CNCCCO1)[C@@H]1CC[C@@H]2CN1C(=O)N2OS(=O)(=O)O (some centres unmarked) [Example 114] please.
OUT: 340

IN: Report IC50 for O=C(NC1CCCNC1)[C@@H]1CC[C@@H]2CN1C(=O)N2OS(=O)(=O)O (some centres unmarked) [Example 19a] please.
OUT: 64

IN: Report IC50 for O=C(Nc1ccc(N2CCCC2)cn1)[C@@H]1CC[C@@H]2CN1C(=O)N2OS(=O)(=O)O [Example 82] please.
OUT: 4

IN: Report IC50 for O=C(NC1CCNC1)[C@@H]1CC[C@@H]2CN1C(=O)N2OS(=O)(=O)O (stereo in doubt) [Example 14] please.
OUT: 110

IN: Report IC50 for N[C@@H]1CNC[C@H]1NC(=O)[C@@H]1CC[C@@H]2CN1C(=O)N2OS(=O)(=O)O [Example 28] please.
OUT: 740

###

Give pIC50 for every item shown.
experimental.system: AmpC (P. aeruginosa) (Pseudomonas aeruginosa (strain ATCC 15692 / DSM 22644 / CIP 104116 / JCM 14847 / LMG 12228 / 1C / PRS 101 / PAO1), UniProt P24735)
Sequence (P24735 27-397): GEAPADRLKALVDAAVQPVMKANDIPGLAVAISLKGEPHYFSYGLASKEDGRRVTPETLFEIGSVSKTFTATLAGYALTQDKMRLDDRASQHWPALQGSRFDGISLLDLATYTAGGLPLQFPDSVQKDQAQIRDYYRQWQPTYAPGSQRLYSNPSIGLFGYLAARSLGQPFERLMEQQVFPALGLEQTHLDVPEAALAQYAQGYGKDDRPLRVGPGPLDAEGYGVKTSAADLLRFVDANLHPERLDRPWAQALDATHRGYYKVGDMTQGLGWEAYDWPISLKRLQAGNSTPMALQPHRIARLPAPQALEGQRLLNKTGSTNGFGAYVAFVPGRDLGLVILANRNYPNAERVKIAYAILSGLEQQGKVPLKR
experiment.notes: biochemical
condition.info: Table 3; read-out: P.a. AmpC IC50
Worth noting: pIC50 values are minus log10 of concentrations stated in mol/L.

IN: Report pIC50 for "O=C(O[C@@H]1CCNC[C@@H]1F)[C@@H]1CC[C@@H]2CN1C(=O)N2OS(=O)(=O)O" please.
OUT: 7.31

IN: Report pIC50 for "O=C(OCC1CCNCC1)[C@@H]1CC[C@@H]2CN1C(=O)N2OS(=O)(=O)O" please.
OUT: 6.74

IN: Report pIC50 for "CC(=O)Oc1ccc(C(=O)NCCOC(=O)[C@@H]2CC[C@@H]3CN2C(=O)N3OS(=O)(=O)O)cc1OC(C)=O" please.
OUT: 6.36

IN: Report pIC50 for "O=C(N[C@@H]1CNC[C@@H]1O)[C@@H]1CC[C@@H]2CN1C(=O)N2OS(=O)(=O)O" please.
OUT: 5.65

IN: Report pIC50 for "O=C(NC1CCS(=O)(=O)CC1)[C@@H]1CC[C@@H]2CN1C(=O)N2OS(=O)(=O)O" please.
OUT: 8.02

IN: Report pIC50 for O=C(NC1C2CNCC21)[C@@H]1CC[C@@H]2CN1C(=O)N2OS(=O)(=O)O (some centres unmarked) please.
OUT: 6.14

IN: Report pIC50 for "O=C(NCCN1CCNCC1)[C@@H]1CC[C@@H]2CN1C(=O)N2OS(=O)(=O)O" please.
OUT: 7.38

IN: Report pIC50 for "O=C(OCCN1CCCCC1)[C@@H]1CC[C@@H]2CN1C(=O)N2OS(=O)(=O)O" please.
OUT: 5.92

###

experimental.system: AmpC (P. aeruginosa) (Pseudomonas aeruginosa (strain ATCC 15692 / DSM 22644 / CIP 104116 / JCM 14847 / LMG 12228 / 1C / PRS 101 / PAO1))
experiment.notes: biochemical
pIC50: −log10 of the molar value.
So basically: pIC50 at 7 or higher? That is YES. Lower than 7? That is NO.

IN: Test whether the molecule O=C(O[C@H]1CNC[C@H]1F)[C@@H]1CC[C@@H]2CN1C(=O)N2OS(=O)(=O)O [Example 104] records pIC50 of 7 or higher.
OUT: YES

IN: Test whether the molecule NCc1ccccc1NC(=O)[C@@H]1CC[C@@H]2CN1C(=O)N2OS(=O)(=O)O [Example 59] records pIC50 of 7 or higher.
OUT: NO

IN: Test whether the molecule CNCc1cccc(NC(=O)[C@@H]2CC[C@@H]3CN2C(=O)N3OS(=O)(=O)O)c1 [Example 61] records pIC50 of 7 or higher.
OUT: YES

IN: Test whether the molecule O=C(O[C@H]1CCNC1)[C@@H]1CC[C@@H]2CN1C(=O)N2OS(=O)(=O)O [Example 95] records pIC50 of 7 or higher.
OUT: NO

IN: Test whether the molecule O=C(Nc1ccncc1)[C@@H]1CC[C@@H]2CN1C(=O)N2OS(=O)(=O)O [Example 6] records pIC50 of 7 or higher.
OUT: YES

IN: Test whether the molecule O=C(OC1CCNCC1)[C@@H]1CC[C@@H]2CN1C(=O)N2OS(=O)(=O)O [Example 93] records pIC50 of 7 or higher.
OUT: NO

IN: Test whether the molecule O=C(Nc1cccnc1)[C@@H]1CC[C@@H]2CN1C(=O)N2OS(=O)(=O)O [Example 71] records pIC50 of 7 or higher.
OUT: YES

IN: Test whether the molecule O=C(NC[C@H]1CNCCCO1)[C@@H]1CC[C@@H]2CN1C(=O)N2OS(=O)(=O)O [Example 43] records pIC50 of 7 or higher.
OUT: YES

IN: Test whether the molecule O=C(N[C@H]1CCNC[C@H]1F)[C@@H]1CC[C@@H]2CN1C(=O)N2OS(=O)(=O)O [Example 15] records pIC50 of 7 or higher.
OUT: YES

IN: Test whether the molecule O=C(O[C@@H]1CCNC1)[C@@H]1CC[C@@H]2CN1C(=O)N2OS(=O)(=O)O [Example 94] records pIC50 of 7 or higher.
OUT: NO

IN: Test whether the molecule O=C([C@@H]1CC[C@@H]2CN1C(=O)N2OS(=O)(=O)O)N1CC2(CCNCC2)C1 [Example 52] records pIC50 of 7 or higher.
OUT: NO

IN: Test whether the molecule O=C(NC(CO)C1CCNCC1)[C@@H]1CC[C@@H]2CN1C(=O)N2OS(=O)(=O)O (stereo partly shown) [Example 41] records pIC50 of 7 or higher.
OUT: NO

IN: Test whether the molecule O=C(N[C@@H]1CCNC[C@@H]1F)[C@@H]1CC[C@@H]2CN1C(=O)N2OS(=O)(=O)O [Example 25] records pIC50 of 7 or higher.
OUT: YES

IN: Test whether the molecule O=C(N[C@@H]1CCCNCC1)[C@@H]1CC[C@@H]2CN1C(=O)N2OS(=O)(=O)O [Example 22] records pIC50 of 7 or higher.
OUT: NO

IN: Test whether the molecule O=C(N[C@H]1CNC[C@H]1F)[C@@H]1CC[C@@H]2CN1C(=O)N2OS(=O)(=O)O [Example 32] records pIC50 of 7 or higher.
OUT: YES

IN: Test whether the molecule O=C(O[C@H]1CNC[C@@H]1F)[C@@H]1CC[C@@H]2CN1C(=O)N2OS(=O)(=O)O [Example 106] records pIC50 of 7 or higher.
OUT: NO

IN: Test whether the molecule O=C(O[C@@H]1CNC[C@@H]1F)[C@@H]1CC[C@@H]2CN1C(=O)N2OS(=O)(=O)O [Example 103] records pIC50 of 7 or higher.
OUT: YES

IN: Test whether the molecule NCc1cccc(NC(=O)[C@@H]2CC[C@@H]3CN2C(=O)N3OS(=O)(=O)O)c1 [Example 58] records pIC50 of 7 or higher.
OUT: YES

IN: Test whether the molecule NC(=O)c1cccc(NC(=O)[C@@H]2CC[C@@H]3CN2C(=O)N3OS(=O)(=O)O)c1 [Example 70] records pIC50 of 7 or higher.
OUT: YES

IN: Test whether the molecule O=C(O[C@@H]1CNC[C@H]1F)[C@@H]1CC[C@@H]2CN1C(=O)N2OS(=O)(=O)O [Example 105] records pIC50 of 7 or higher.
OUT: NO

IN: Test whether the molecule O=C(N[C@H]1CCN(C2CCNCC2)C1=O)[C@@H]1CC[C@@H]2CN1C(=O)N2OS(=O)(=O)O [Example 33] records pIC50 of 7 or higher.
OUT: NO

IN: Test whether the molecule O=C(N[C@@H]1CCN(C2CCNCC2)C1=O)[C@@H]1CC[C@@H]2CN1C(=O)N2OS(=O)(=O)O [Example 34] records pIC50 of 7 or higher.
OUT: YES

Source: patent US8487093B2
